# System: P388 leukemia ip, CD2F1 mice, survival T/C
# protocol text: NCI In Vivo Anticancer Drug Screen. Data for tumor model P388 Leukemia (intraperitoneal) in CD2F1 (CDF1) mice
# conditions used: endpoint: median survival time; dose: 12.5 mg/kg/injection; schedule: Q04DX003 (ip); vehicle: saline with Tween-80
Toxic doses and inconclusive results are not listed. Rule for the calls: active = survival T/C of 150% or more; inactive = T/C below 125% in these data.
Outcomes: active, inactive

* O=CC(Br)C(Br)c1ccccc1 (configuration not stated) | inactive
* COc1cc2cc(-c3cc(OC)c(OC)c(OC)c3)c3c(c2cc1OC)CNC3 | inactive
* C=C/C(C)=C/[C@H](C)C(=O)C[C@H](O)CC1CC(=O)NC(=O)C1 | inactive
* COc1ccccc1NC(=O)N(CCCl)N=O | active
* CCCCCCNP(=O)(N1CC1)N1CC1 | active
* CC1(C)N=C(N)N=C(N)N1c1cccc(CC(=O)Nc2ccccc2)c1 | inactive
* O=C(O)c1ccc2nc(-c3ccccc3)cn2c1 | inactive

* * *

# System: P388 leukemia ip, CD2F1 mice, survival T/C
# protocol text: NCI In Vivo Anticancer Drug Screen. Data for tumor model P388 Leukemia (intraperitoneal) in CD2F1 (CDF1) mice
# conditions used: endpoint: median survival time; dose: 100.0 mg/kg/injection; schedule: Q01DX009 (ip); vehicle: saline with Tween-80; higher = longer survival
Toxic doses and inconclusive results are not listed.
observed property: T/C

• CC1=NN(C(=O)c2cccnc2)C(=O)C1N=Nc1ccc(S(=O)(=O)Nc2nc(C)cc(C)n2)cc1 (stereo not given) = 99 % of control
• NC(=O)c1ccccc1OC(=O)NCCO = 95 % of control
• C[Si](C)(C)n1nnn(-c2ccccc2)c1=O = 112 % of control
• NC(=O)Nc1nc(C(F)(F)F)cc(=O)[nH]1 = 106 % of control
• CC/S(=N\S(=O)(=O)c1ccc(C)cc1)c1ccccc1 (stereo not given) = 100 % of control
• CCC[CH2][Sn]([CH2]CCC)([CH2]CCN(C)C)[CH2]CCN(C)C = 104 % of control
• CN(C)c1nc(NO)nc(N(C)C)n1 = 107 % of control
• CCCCN(CCCC)CCCOC(=O)c1ccc2oc3ccc(C(=O)OCCCN(CCCC)CCCC)cc3c2c1 = 103 % of control
• CC1(c2cccs2)NC(=O)NC1=O (stereo not given) = 98 % of control
• O=C(CC(=NCCCN=C(CC(=O)c1ccccc1)c1ccccc1)c1ccccc1)c1ccccc1 = 100 % of control
• CC(C)(C)N=C(CCN1CCN(c2ccccc2)CC1)Nc1ccccc1Cl = 108 % of control
• COc1cccc(/C=N/NC(=O)c2c(-c3ccccc3)noc2C)c1O = 100 % of control
• O=C(/C=C/c1ccccc1O)c1ccccc1 = 102 % of control
• CCOC(=O)C(=CNc1ccccn1)C(=O)OCC = 95 % of control
• CCCn1c(=S)[nH]c2ccccc2c1=O = 95 % of control

* * *

# Tested on: P388 leukemia ip, CD2F1 mice, survival T/C
# protocol text: NCI In Vivo Anticancer Drug Screen. Data for tumor model P388 Leukemia (intraperitoneal) in CD2F1 (CDF1) mice
# conditions used: endpoint: median survival time; dose: 25.0 mg/kg/injection; schedule: Q01DX005 (ip); vehicle: saline; higher = longer survival
# Description: The antitumor activity of compounds was measured in mice bearing transplantable tumors. Survival or tumor size were measured and the results are expressed as the measurement made in the treated group (T) divided by the measurement made in the vehicle treated control group (C). The tumor model used in this assay is P388 Leukemia (intraperitoneal) in CD2F1 (CDF1) mice
Inconclusive results and toxic doses are left out.
observed property: T/C

• CC1(C)OC(COCCOCCOCCCC#N)C(COCCOCCOCCCC#N)O1 (centres undefined) = 100 % of control
• COc1cccc2c1C(CO)N1C(C#N)C3CC(C(=O)O)C(C1C2)N3C (centres undefined) = 200 % of control
• CN(C)CCN(C)c1cccc2c1C(=O)c1cscc1C2=O = 100 % of control
• O=c1[nH]oc(=O)[nH]1 = 94 % of control
